The reported measurements were obtained from paper PMC7985570.

Provide the reported CC50 of each item.
- procedureSummary: in vitro
- assayConditions: human, 293T-ACE2 CC50

Check out these entries, answers already filled in.
# compound, measuredParameter, experimentalValue
records = [
    ("Cc1cccc2c3c(ccc12)C1=C(C(=O)C3=O)[C@@H](C)CO1 [SC24, Dihydrotanshinone I]", "CC50", "33.5 µM"),
    ("CCOC(=O)[C@H]1O[C@@H]1C(=O)N[C@@H](CC(C)C)C(=O)NCCC(C)C [Aloxistatin, aloxistatin, reference compound]", "CC50", "> 50 µM"),
]

Incoming: Which CC50 is reported for this compound? O=C1Nc2ccc(Cl)cc2[C@@](C#CC2CC2)(C(F)(F)F)O1 [SC102, Efavirenz]
Outgoing: > 50 µM
